molecular target: TEM-1 β-lactamase (Escherichia coli); assay: TEM-1 β-lactamase inhibition assay (nitrocefin hydrolysis, 486 nm); assay type: biochemical; details: Ki, 25° C., 50 mM sodium phosphate, 5% DMSO, pH 7.0; enzyme 5 nM, nitrocefin 167 μM
Sequence (P62593 24-286 limits assumed): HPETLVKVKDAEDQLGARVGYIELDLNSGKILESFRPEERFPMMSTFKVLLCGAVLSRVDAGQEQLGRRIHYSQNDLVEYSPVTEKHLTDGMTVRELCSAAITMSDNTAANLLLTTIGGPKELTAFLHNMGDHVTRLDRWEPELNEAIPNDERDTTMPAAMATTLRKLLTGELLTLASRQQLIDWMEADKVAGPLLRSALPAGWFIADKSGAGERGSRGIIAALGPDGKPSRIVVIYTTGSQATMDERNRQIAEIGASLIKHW
attribute-measured: Ki (µM)
Please give a number only; it is taken to be in µM.

Note to self: Ki recorded for O=C(Oc1ccccc1Cl)c1cc(B(O)O)cc([N+](=O)[O-])c1 was 28

Note to self: Ki recorded for O=C(Oc1ccc(F)cc1)c1cc(B(O)O)cc([N+](=O)[O-])c1 was 100

Note to self: Ki recorded for CC(C)(C)OC(=O)Oc1cccc(B(O)O)c1 was 297

Note to self: Ki recorded for O=C(Oc1ccccc1[N+](=O)[O-])c1cc(B(O)O)cc([N+](=O)[O-])c1 was 12

Note to self: Ki recorded for O=C(Oc1ccccc1)c1cc(B(O)O)cc([N+](=O)[O-])c1 was 95

Note to self: Ki recorded for COc1ccccc1OC(=O)c1cc(B(O)O)cc([N+](=O)[O-])c1 was 116

Note to self: Ki recorded for O=C(OCc1ccccc1)c1ccc(B(O)O)cc1 was 148

Note to self: Ki recorded for O=C(Oc1ccc(OC(=O)c2ccc(B(O)O)cc2F)c(Cl)c1)c1ccc(B(O)O)cc1F was 122

Note to self: Ki recorded for O=C(Oc1c(Cl)cccc1[N+](=O)[O-])c1ccc(B(O)O)cc1F was 43

Note to self: Ki recorded for O=C(O)c1cc(NC(=O)c2ccccc2F)cc(B(O)O)c1 was 143

Note to self: Ki recorded for O=C(Oc1cccc(B(O)O)c1)c1cc(B(O)O)cc([N+](=O)[O-])c1 was 32

Note to self: Ki recorded for O=C(Oc1c(Cl)cccc1[N+](=O)[O-])c1cc(B(O)O)cc([N+](=O)[O-])c1 was 9.5

Note to self: Ki recorded for O=C(Oc1ccc(OC(=O)c2cc(B(O)O)cc([N+](=O)[O-])c2)c(Cl)c1)c1cc(B(O)O)cc([N+](=O)[O-])c1 was 15.2

Note to self: Ki recorded for O=C(Oc1c(Cl)cccc1Cl)c1cc(B(O)O)cc([N+](=O)[O-])c1 was 8.8

Note to self: Ki recorded for O=C(OCc1cccc(B(O)O)c1)c1cc(B(O)O)cc([N+](=O)[O-])c1 was 55.7

Note to self: Ki recorded for O=C(Oc1cccc([N+](=O)[O-])c1)c1cc(B(O)O)cc([N+](=O)[O-])c1 was 39

Note to self: Ki recorded for CCCCOC(=O)c1cccc(B(O)O)c1 was 231

Note to self: Ki recorded for O=C(Oc1ccccc1Br)c1cc(B(O)O)cc([N+](=O)[O-])c1 was 25
